- STUDY_TARGET: T1, monkey C5-mmh (monkey, UniProt P01031 19-1676 (human entry), limits assumed)
- T1 construct: Expressed with a C-terminal myc-myc-hexahistidine tag
- T1 chain: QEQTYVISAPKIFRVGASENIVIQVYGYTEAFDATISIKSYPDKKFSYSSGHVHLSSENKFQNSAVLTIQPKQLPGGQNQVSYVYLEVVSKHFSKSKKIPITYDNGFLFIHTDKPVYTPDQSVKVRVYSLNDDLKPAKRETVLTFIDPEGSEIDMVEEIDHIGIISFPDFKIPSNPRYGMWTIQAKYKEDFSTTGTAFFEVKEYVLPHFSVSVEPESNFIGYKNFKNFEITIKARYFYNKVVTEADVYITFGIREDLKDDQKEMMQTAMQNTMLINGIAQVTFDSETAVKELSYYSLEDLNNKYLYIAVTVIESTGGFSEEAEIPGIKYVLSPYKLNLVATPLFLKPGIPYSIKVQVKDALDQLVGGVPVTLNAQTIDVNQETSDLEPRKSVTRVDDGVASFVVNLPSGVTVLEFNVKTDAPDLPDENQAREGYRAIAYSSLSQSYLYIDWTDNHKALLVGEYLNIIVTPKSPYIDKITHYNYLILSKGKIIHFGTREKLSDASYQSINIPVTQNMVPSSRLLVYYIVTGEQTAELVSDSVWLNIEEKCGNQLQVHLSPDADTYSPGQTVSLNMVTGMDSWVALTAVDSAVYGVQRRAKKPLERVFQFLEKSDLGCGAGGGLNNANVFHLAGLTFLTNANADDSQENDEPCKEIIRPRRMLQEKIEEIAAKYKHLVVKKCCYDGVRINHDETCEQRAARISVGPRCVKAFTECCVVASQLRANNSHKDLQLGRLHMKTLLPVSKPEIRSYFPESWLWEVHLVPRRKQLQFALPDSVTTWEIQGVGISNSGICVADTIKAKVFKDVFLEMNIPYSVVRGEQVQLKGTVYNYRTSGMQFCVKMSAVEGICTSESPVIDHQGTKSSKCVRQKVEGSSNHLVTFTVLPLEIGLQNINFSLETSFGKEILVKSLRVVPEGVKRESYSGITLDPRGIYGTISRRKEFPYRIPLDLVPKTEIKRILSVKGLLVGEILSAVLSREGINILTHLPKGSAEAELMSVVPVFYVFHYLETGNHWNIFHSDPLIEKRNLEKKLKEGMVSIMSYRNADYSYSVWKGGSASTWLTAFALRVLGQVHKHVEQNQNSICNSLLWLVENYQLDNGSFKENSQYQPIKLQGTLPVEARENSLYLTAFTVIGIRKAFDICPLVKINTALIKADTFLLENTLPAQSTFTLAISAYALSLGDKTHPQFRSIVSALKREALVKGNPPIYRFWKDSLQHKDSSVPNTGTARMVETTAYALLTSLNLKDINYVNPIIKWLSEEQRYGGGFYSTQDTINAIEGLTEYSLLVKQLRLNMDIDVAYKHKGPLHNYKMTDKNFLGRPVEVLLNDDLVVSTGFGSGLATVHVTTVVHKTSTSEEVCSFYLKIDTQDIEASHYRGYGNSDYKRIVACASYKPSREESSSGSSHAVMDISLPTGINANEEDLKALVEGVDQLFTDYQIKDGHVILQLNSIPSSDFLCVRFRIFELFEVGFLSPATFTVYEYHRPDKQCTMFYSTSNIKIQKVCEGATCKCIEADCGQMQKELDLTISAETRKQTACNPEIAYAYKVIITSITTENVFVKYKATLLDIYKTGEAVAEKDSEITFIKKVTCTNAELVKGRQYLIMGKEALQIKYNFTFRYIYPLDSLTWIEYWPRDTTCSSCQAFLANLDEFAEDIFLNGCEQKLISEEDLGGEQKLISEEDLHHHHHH
- ASSAY_TEXT: SPR, mAb captured by anti-hFc, 25C
The binders listed here are annotated with their koff.
READOUT_LABEL: koff

BINDER	READOUT_LABEL	RESULT
H4H12166P9 (antibody, human IgG4, V domains shown, human IgG4 Fc with S108P hinge mutation) VH: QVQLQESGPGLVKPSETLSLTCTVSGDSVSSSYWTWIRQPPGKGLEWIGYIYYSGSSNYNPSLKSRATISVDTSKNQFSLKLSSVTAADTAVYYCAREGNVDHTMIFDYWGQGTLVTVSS VL: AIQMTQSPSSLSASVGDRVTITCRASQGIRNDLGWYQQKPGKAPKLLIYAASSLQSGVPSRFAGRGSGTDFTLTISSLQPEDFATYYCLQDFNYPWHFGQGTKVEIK	koff	0.00318 s⁻¹
H4H12175P (antibody, human IgG4, V domains shown) VH: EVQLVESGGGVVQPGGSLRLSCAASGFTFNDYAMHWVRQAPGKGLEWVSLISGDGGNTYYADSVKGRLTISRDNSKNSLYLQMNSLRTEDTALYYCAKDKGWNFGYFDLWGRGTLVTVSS VL: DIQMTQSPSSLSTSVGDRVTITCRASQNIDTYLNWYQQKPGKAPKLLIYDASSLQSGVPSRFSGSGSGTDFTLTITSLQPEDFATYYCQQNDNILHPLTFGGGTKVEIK	koff	0.00165 s⁻¹
H4H12166P5 (antibody, human IgG4, V domains shown, human IgG4 Fc with S108P hinge mutation) VH: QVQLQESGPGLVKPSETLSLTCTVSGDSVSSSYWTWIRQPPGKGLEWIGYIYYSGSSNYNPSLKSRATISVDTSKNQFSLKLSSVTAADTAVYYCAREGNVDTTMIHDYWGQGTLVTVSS VL: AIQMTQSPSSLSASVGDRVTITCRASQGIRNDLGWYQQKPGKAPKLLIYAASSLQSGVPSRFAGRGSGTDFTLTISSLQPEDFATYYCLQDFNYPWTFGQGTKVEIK	koff	0.00346 s⁻¹
H4H12166P8 (antibody, human IgG4, V domains shown, human IgG4 Fc with S108P hinge mutation) VH: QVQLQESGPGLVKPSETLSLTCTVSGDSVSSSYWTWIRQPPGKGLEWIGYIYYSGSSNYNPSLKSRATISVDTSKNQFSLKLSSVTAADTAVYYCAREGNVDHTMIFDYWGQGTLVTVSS VL: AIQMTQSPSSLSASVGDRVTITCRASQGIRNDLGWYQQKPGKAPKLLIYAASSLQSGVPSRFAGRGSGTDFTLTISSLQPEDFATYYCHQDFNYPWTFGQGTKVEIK	koff	0.00499 s⁻¹
H4H12159P (antibody, human IgG4, V domains shown) VH: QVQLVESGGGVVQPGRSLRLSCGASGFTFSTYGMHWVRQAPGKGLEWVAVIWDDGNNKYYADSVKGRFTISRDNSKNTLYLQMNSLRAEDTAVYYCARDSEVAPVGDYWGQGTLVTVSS VL: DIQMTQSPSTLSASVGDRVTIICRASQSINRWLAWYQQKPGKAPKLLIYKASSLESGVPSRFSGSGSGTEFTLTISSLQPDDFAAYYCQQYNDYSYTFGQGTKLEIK	koff	4.69e-05 s⁻¹
H4H12167P (antibody, human IgG4, V domains shown) VH: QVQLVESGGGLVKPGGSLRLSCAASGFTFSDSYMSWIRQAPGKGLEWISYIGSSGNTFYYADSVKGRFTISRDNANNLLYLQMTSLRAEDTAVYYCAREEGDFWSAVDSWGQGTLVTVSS VL: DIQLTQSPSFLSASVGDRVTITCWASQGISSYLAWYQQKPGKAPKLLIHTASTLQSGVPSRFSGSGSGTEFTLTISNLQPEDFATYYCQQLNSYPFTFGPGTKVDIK	koff	0.000132 s⁻¹
H4H12166P4 (antibody, human IgG4, V domains shown, human IgG4 Fc with S108P hinge mutation) VH: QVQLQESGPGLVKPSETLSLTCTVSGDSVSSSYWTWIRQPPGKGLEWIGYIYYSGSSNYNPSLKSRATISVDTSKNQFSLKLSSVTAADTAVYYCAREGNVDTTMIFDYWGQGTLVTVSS VL: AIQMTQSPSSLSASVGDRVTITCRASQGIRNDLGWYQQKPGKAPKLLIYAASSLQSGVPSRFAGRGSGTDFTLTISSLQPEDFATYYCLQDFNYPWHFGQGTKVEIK	koff	0.00178 s⁻¹
